meta.source: patent US20260139048A1

# Measured on: T1, His-tagged cynomolgus TIGIT (cynomolgus, UniProt A0A7N9I9V4 89-209)
# T1 construct: SPR analyte; also called cynomolgus TIGIT protein; not shown: His tag
# Assay text: SPR (Biacore T200), antibody captured, His-tagged TIGIT analyte
Task for the reader: assign each of the following binders its reported kon.
Give bare numbers, in M⁻¹ s⁻¹.

Hu1217-2-2 (anti-TIGIT positive control antibody) (antibody, V domains shown) VH: EVQLVESGGGLVQPGGSLRLSCAASGFTFSDYYMYWVRQAPGKGLEWVAYITKGGGSTYYPDSVKGRFTISRDNAKNTLYLQMNSLRAEDTAVYYCARQTNYDFTMDYWGQGTLVTVSS VL: EIVMTQSPATLSVSPGERATLSCKASQDVGTSVAWYQQKPGQAPRLLIYWASARHTGIPARFSGSGSGTEFTLTISSLQSEDFAVYYCQQYSSYPLTFGGGTKVEIK
130000

Next binder, please.
[Q] Please look up its kon: TIGIT-3 chimeric antibody (antibody, human IgG1, kappa, V domains shown, also called 3VH + 3VL) VH: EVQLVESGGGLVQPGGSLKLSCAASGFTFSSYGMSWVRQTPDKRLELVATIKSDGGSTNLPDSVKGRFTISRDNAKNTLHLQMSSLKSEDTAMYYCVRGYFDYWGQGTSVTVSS VL: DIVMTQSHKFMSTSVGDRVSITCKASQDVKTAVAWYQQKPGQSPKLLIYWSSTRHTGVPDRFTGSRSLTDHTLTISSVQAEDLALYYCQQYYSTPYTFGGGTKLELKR
[A] 120000
